- target.or.system: human DLL4, full length, overexpressed on cells (human, UniProt Q9NR61 27-685)
- assay.comment: cell-based or functional assay
measurement.type: IC50, DLL4 mediated reporter assay, +HSA
Be sure to follow the number with its unit.

// field: IC50, DLL4 mediated reporter assay, +HSA; key: DLLBII129B05 (VHH, not shown: small tags and cut ends) VHH: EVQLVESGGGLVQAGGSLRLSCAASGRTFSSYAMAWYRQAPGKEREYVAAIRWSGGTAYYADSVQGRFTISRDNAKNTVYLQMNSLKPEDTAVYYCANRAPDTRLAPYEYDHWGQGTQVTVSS ; value = 88 nM

Taken from patent US20140120095A1.
